test: Volume of distribution in dog at 1 mg/kg, iv; type: ADME, organism-based, Canis lupus familiaris; details: in vivo
RECORDED METRIC: Vd (L/kg)
Record the value in L/kg, omitting the unit from your answer.

"Cn1cc(Nc2nc(N)nc(-c3cccc(-n4ccc5cc(C6CC6)cc(F)c5c4=O)c3CO)n2)cn1.O=S(=O)(O)O" yielded Vd of 0.29

* * *

experiment: Cmax in dog at 1 mg/kg, iv; type: ADME, organism-based, Canis lupus familiaris; set-up: dose 1 mg/kg, route intravenous; details: in vivo
RECORDED METRIC: Cmax (ng/mL)
Record the value in ng/mL, omitting the unit from your answer.

"Cn1cc(Nc2nc(N)nc(-c3cccc(-n4ccc5cc(C6CC6)cc(F)c5c4=O)c3CO)n2)cn1.O=S(=O)(O)O" yielded Cmax of 4960
